- Experimental Details: self-splicing fitness, log relative to wild type (ln ratio); higher = more splicing; Tetrahymena group I intron in knt gene, E. coli kanamycin selection, DiMSum; sequences stand for … in CUCUCU…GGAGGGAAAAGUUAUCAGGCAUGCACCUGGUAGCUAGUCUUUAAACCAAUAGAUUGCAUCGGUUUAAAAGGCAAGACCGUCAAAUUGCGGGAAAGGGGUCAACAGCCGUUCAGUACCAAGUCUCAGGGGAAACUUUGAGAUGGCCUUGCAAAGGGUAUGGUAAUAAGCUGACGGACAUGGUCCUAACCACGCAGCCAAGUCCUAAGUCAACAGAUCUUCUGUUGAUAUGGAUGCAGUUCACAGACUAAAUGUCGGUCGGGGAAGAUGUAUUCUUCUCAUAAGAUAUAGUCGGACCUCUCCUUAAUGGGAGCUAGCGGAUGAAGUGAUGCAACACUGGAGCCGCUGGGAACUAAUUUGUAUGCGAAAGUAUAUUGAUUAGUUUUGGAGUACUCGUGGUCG;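 note: selection with 25 µg/mL kanamycin versus none on LB agar overnight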
- Measurement Context: 30 °C
Experimental Endpoint: self-splicing fitness (ln)
Field format: numeric only.

>>> print(df.to_string())
         query_sequence  number
0  AUCAAGCAAUAUUACGCGGC   -3.39
1  AUCAAGCAAUAUUACGCGGA   -2.07

Ask: Recorded self-splicing fitness (ln) for AGACAGCAAUAUUACGGGUG , please?
Result: -3.07

Ask: Same for GAUUAGCAAUAUUACGUUUG
Result: -2.64

Ask: Record: AUUAAGCAAUAUUACGCAUG
Result: -1.09

Ask: Similarly, CGCCAGCAAUAUUACGAUCU ?
Result: -2.5

* * *

- Experimental Details: self-splicing fitness, log relative to wild type (ln ratio); higher = more splicing; Tetrahymena group I intron in knt gene, E. coli kanamycin selection, DiMSum; sequences stand for … in CUCUCU…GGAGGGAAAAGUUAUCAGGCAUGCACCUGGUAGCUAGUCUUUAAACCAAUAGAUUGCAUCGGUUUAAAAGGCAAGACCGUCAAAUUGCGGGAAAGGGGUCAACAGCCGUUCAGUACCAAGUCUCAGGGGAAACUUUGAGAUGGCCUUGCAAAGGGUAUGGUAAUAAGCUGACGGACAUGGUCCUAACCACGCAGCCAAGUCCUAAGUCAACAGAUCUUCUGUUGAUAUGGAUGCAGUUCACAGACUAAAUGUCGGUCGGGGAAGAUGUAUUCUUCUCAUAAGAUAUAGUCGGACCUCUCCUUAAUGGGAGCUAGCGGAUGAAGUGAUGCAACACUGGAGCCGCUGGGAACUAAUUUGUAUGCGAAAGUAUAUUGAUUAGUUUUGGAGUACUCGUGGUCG
- Measurement Context: 30 °C
Short version: self-splicing fitness (ln) at least -3 is Y, less is N.

Known results for sequences:
>>> df
         query_sequence  qualitative_label
0  UCGCAGCAAUAUUACGAAUC                  N
1  CUCGAGCAAUAUUACGUCUG                  Y
2  ACCAAGCAAUAUUACGUUAG                  N

Ask: Determine whether measured self-splicing fitness (ln) meets or exceeds -3 for UGAUAGCAAUAUUACGACUG
Result: Y

Ask: Field entry: AGUUAGCAAUAUUACGGGGG
Result: Y

* * *

- Experimental Details: self-splicing fitness, log relative to wild type (ln ratio); higher = more splicing; Tetrahymena group I intron in knt gene, E. coli kanamycin selection, DiMSum; sequences stand for … in CUCUCU…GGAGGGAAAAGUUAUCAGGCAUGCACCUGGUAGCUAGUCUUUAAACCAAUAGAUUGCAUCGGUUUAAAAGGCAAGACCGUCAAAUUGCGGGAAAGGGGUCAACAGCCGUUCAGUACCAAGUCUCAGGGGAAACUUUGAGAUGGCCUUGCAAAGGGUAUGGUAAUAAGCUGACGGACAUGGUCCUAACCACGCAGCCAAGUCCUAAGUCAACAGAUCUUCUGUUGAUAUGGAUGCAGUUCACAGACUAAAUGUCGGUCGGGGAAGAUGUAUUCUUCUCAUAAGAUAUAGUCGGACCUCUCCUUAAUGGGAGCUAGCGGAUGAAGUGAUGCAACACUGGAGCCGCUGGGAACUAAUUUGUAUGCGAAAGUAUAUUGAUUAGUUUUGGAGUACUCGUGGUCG
- Measurement Context: 37 °C
Experimental Endpoint: self-splicing fitness (ln)

>>> df
         query_sequence  result
0  ACGCAGCAAUAUUACGGAAG   -1.75
1  UAAAAGCAAUAUUACGCAGG    -1.2
2  GCGAAGCAAUAUUACGUAUU  -0.392
3  CGAUAGCAAUAUUACGAACU  -0.465
4  CGAGAGCAAUAUUACGGCGG  -0.665

// switching to the query sequence
Ask: Which self-splicing fitness (ln) is reported for this sequence? UCGUAGCAAUAUUACGCCCA
Result: 0.129

* * *

- Experimental Details: self-splicing fitness, log relative to wild type (ln ratio); higher = more splicing; Tetrahymena group I intron in knt gene, E. coli kanamycin selection, DiMSum; sequences stand for … in CUCUCU…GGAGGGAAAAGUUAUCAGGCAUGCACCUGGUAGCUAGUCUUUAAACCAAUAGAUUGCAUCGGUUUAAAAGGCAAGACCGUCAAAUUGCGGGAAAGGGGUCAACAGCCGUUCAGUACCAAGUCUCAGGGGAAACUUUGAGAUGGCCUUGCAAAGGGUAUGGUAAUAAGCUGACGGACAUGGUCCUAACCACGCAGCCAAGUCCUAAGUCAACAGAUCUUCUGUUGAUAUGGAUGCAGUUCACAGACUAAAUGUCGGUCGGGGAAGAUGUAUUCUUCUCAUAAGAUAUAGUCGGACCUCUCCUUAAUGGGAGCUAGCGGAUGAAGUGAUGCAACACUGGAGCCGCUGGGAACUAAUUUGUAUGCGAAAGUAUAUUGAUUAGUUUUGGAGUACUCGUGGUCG
- Measurement Context: 30 °C
Experimental Endpoint: self-splicing fitness (ln)
Just the number.

Use these answered entries as a reference point.
>>> print(df.to_string())
         query_sequence   number
0  CGAUAGCAAUAUUACGAGGA    -3.08
1  CCCUAGCAAUAUUACGAGUU    -2.39
2  UCCCAGCAAUAUUACGAUGA  -0.0138
3  UAGCAGCAAUAUUACGAUGG     -1.6
4  AGCUAGCAAUAUUACGAGUC    -3.89

Ask: Returns the measured self-splicing fitness (ln) for the input sequence. Input: GUCGAGCAAUAUUACGGUCC
Result: -3.17

Ask: Follow-up item: GGAUAGCAAUAUUACGUCUU
Result: -0.966

Ask: Entry CAUCAGCAAUAUUACGCCUA please
Result: -1.55

Ask: Again, but for CGAUAGCAAUAUUACGAAAU
Result: -3.36

Ask: # repeat for GCCUAGCAAUAUUACGUGCG
Result: -1.6

Ask: Can you check UACUAGCAAUAUUACGACUG next?
Result: -0.572

Ask: Input GACAAGCAAUAUUACGAAAG
Result: -3.82

Ask: Next: ACCUAGCAAUAUUACGAGCA
Result: -1.17

Ask: Also, AUAUAGCAAUAUUACGGCGA please.
Result: -0.84

Ask: Then this sequence: CGUCAGCAAUAUUACGAAGG
Result: -0.693

Ask: Try this sequence next: CGAAAGCAAUAUUACGGGAG
Result: -3.09

Ask: Also check GCGGAGCAAUAUUACGCUCG
Result: -2.94

Ask: Repeat with CAGAAGCAAUAUUACGUCCG
Result: 0.0183

* * *

- Experimental Details: self-splicing fitness, log relative to wild type (ln ratio); higher = more splicing; Tetrahymena group I intron in knt gene, E. coli kanamycin selection, DiMSum; sequences stand for … in CUCUCU…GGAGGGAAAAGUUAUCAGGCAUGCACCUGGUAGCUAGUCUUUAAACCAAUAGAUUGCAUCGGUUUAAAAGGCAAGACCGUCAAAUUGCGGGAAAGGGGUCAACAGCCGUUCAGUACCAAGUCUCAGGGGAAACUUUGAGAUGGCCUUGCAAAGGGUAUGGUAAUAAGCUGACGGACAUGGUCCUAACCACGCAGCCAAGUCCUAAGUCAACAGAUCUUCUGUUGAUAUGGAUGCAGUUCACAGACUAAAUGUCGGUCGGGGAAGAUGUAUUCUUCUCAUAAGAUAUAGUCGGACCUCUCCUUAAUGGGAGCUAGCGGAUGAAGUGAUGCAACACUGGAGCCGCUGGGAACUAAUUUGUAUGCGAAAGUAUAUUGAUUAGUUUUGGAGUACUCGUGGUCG
- Measurement Context: 37 °C
Listed sequences paired with reported self-splicing fitness (ln)
// keep it numeric: no unit symbol after the value

Below are worked cases with known answers.
In [3]: df
Out[3]:
         query_sequence       experimental_endpoint  number
0  GUUUAGCAAUAUUACGCUGU  self-splicing fitness (ln)      -2
1  CUUUAGCAAUAUUACGACGA  self-splicing fitness (ln)   -1.82
2  AUGCAGCAAUAUUACGACAU  self-splicing fitness (ln)   0.215

Ask: Fill blank: measured self-splicing fitness (ln) of the sequence GUUUAGCAAUAUUACGUACU is ____.
Result: 0.333
